- System: MUSK
- condition_label: concentration: 1 μM, replicates: in singlicate; n = 1;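 further: KINOMEscan kinase panel screen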
The entries below come with measured %Inh values attached.
Write down the numeric answer in % and omit the unit.

[[record]]
compound = "COc1ccc(-c2cc3c(C)nc(N)nc3n([C@H]3CC[C@H](O)CC3)c2=O)cn1"
value_observed = 0

[[record]]
compound = "CN1C(=O)C(Nc2ccccc2)=C(c2ccccc2)C1=O"
value_observed = 0

[[record]]
compound = "CC(C)(C)c1ccc(C(=O)Nc2cn3cc(-c4ccccc4)ccc3n2)cc1"
value_observed = 0

[[record]]
compound = "CCS(=O)c1ccc(-c2coc3ccc(-c4nnc(C)o4)cc23)cc1 (centres unmarked)"
value_observed = 0

[[record]]
compound = "COc1cc(Nc2ccnc3ccc(C(F)(F)F)cc23)cc(OC)c1OC"
value_observed = 8


Please examine the following record next.
Query the reported %Inh for MUSK; item: "O=C(Nc1n[nH]c2nc(-c3ccccc3)c(Br)cc12)C1CC1" 0

* * *

Listing of recorded %Inh by entry.
- Tested on: RSK1(Kin.Dom.1-N-terminal)
- Construct: gene RPS6KA1
- condition_label: concentration: 1 μM, replicates: in singlicate; n = 1
Write the answer as a number in %, unit excluded.

[[record]]
compound = "Cc1ccc(Oc2ccc(Nc3ncnc4cc[nH]c34)cc2C)cn1"
measured_target = "RSK1(Kin.Dom.1-N-terminal)"
measurement_kind = "%Inh"
value_observed = 5

[[record]]
compound = "CCn1c(-c2ccoc2)nc2cnccc21 [SB-733887]"
measured_target = "RSK1(Kin.Dom.1-N-terminal)"
measurement_kind = "%Inh"
value_observed = 9

[[record]]
compound = "COc1cc(Nc2nccc(N3CCC(NC(=O)C(C)c4ccc(Cl)cc4)C3)n2)cc(OC)c1OC (centres unmarked) [GSK1379757]"
measured_target = "RSK1(Kin.Dom.1-N-terminal)"
measurement_kind = "%Inh"
value_observed = 21

[[record]]
compound = "COc1ccc(Nc2nccc(N3CCC(NS(=O)(=O)c4ccc(NC(C)=O)cc4)C3)n2)cc1 (centres unmarked) [GSK1379729]"
measured_target = "RSK1(Kin.Dom.1-N-terminal)"
measurement_kind = "%Inh"
value_observed = 0


Now consider a different compound.
# %Inh lookup, item COc1cc(Nc2ccnc3ccc(C(F)(F)F)cc23)cc(OC)c1OC [GW577382] 18

* * *

Some compounds, each annotated with its measured %Inh.
- System: MAP3K1
- condition_label: concentration: 1 μM, replicates: in singlicate; n = 1
Express the result in % but write the number alone.

[[record]]
compound_structure_string = "Cc1nnc(-c2ccc(C)c(-c3ccc(C(=O)O)cc3)c2)o1"
measured_target = "MAP3K1"
unit_of_measurement = "%"
value_observed = 0

[[record]]
compound_structure_string = "COc1ccc(-c2coc3ccc(-c4nnc(SCc5cccc(C#N)c5)o4)cc23)cc1"
measured_target = "MAP3K1"
unit_of_measurement = "%"
value_observed = 7

[[record]]
compound_structure_string = "COc1cc2ncn(-c3cc(OCc4ccc(S(C)(=O)=O)cc4)c(C(N)=O)s3)c2cc1OC"
measured_target = "MAP3K1"
unit_of_measurement = "%"
value_observed = 8

[[record]]
compound_structure_string = "CCc1ccc(-c2ccc3c(c2)-c2nn(C)cc2S(=O)(=O)N3C)cc1"
measured_target = "MAP3K1"
unit_of_measurement = "%"
value_observed = 0

[[record]]
compound_structure_string = "Cc1ccc(Oc2ccc(Nc3ncnc4cc[nH]c34)cc2C)cn1"
measured_target = "MAP3K1"
unit_of_measurement = "%"
value_observed = 0

[[record]]
compound_structure_string = "O=C1NC(=O)C(c2ccccc2)=C1Nc1cccc(O)c1"
measured_target = "MAP3K1"
unit_of_measurement = "%"
value_observed = 0


Give the measured %Inh of "CCC(=O)c1c(-c2ccccc2)c2cc(Cl)ccc2c(=O)n1Cc1cc(S(C)(=O)=O)n(CCC(C)(C)O)n1" . 3

Also "O=C(Nc1n[nH]c2nc(-c3ccccc3)c(Br)cc12)C1CC1" , if possible. 0

And then "COc1ccc(-c2cc3c(C)nc(N)nc3n([C@H]3CC[C@H](OCCO)CC3)c2=O)cn1" , what is it? 0

Moving on to "CN1C(=O)C(Nc2cc(Cl)c(O)c(Cl)c2)=C(c2ccc(Cl)cc2)C1=O" 0
